Give measured MIC50 for each item. Keep answers brief.
system: human rhinovirus (HRV) serotypes; test: microbe, parasite or virus in culture; type: cell-based; details: read-out: Rhinovirus MIC50
Give just the numeric value; µg/mL need not be written.

Asked: Any idea what its MIC50 is? The compound is CCOC(=O)c1cc(C2=NCCO2)ccc1OCCCCCc1cc(C)no1 [Example 146]
Given back: 0.29

Asked: And then Cc1cc(CCCCOc2ccc(C3=NC(C)CO3)cc2)on1 (centres unmarked) [Example 64] , what is it?
Given back: 0.485

Asked: Similarly, Cc1cc(CCCCCOc2c(C)cc(C(=O)NCCCl)cc2Cl)on1 [154(b)] ?
Given back: 0.17

Asked: Would you kindly repeat that for Cc1cc(CCCCCOc2ccc(-c3nc(C)c(C)o3)cc2C(F)(F)F)on1 [Example 91] ?
Given back: 0.75

Asked: // next record Cc1cc(CCCCCOc2c(Cl)cc(C3=NC(CO)CO3)cc2Cl)on1 (centres unmarked) [Example 138]
Given back: 0.2

Asked: How about this compound: Cc1cc(CCCCCOc2c(C)cc(C3=NCCO3)c(Cl)c2C)on1 [Example 160]
Given back: 0.24

Asked: What do you have for Cc1cc(CCCCCOc2ccc(C3=NC(C)CO3)c(Cl)c2)on1 (centres unmarked) [Example 77] ?
Given back: 0.088

Asked: Another compound to look at: CCC(=O)Nc1cc(C2=NCCO2)ccc1OCCCCCc1cc(C)no1 [Example 102]
Given back: 12.5

Asked: Continue with COc1cc(C2=NCCO2)ccc1OCCCCCc1cc(C)no1 [Example 42]
Given back: 0.35

Asked: And then CN(C)Cc1cc(CCCCCCCOc2ccc(C3=NCCO3)cc2)on1 [Example 136(b)] , what is it?
Given back: 0.88

Asked: Now try Cc1cc(CCCCCCCOc2ccc(C3=N[C@@H](C)CO3)cc2)on1 [Example 4] .
Given back: 0.025

Asked: Now the same for Cc1cc(CCCCCCCOc2ccc(C3=NCCO3)c(O)c2)on1 [Example 59]
Given back: 0.435

Asked: Okay, and Cc1cc(CCCCCCCOc2ccc(C3=NCCO3)cc2F)on1 [19(b)] ?
Given back: 0.8

Asked: Further, for Cc1cc(CCCCCOc2c(C)cc(-c3cnco3)cc2C)on1 [97(b)] ?
Given back: 0.135

Asked: Same question, Cc1cc(CCCCCOc2ccc(-c3nc(C)c(C)o3)cc2)on1 [89(d)] this time
Given back: 0.19

Asked: Could you do the same for Cc1cc(CCC#CCOc2c(Cl)cc(C3=NCCO3)cc2Cl)on1 [Example 151] , please?
Given back: 0.2

Asked: Another: Cc1cc(CCCCCCCCOc2ccc(C3=NC(C)CO3)cc2Cl)on1 (centres unmarked) [27(b)]
Given back: 0.405

Asked: Cool, now Cc1cc(CCCCOc2c(Cl)cc(-c3nc(C)c(C)o3)cc2Cl)on1 [Example 120]
Given back: 0.16

Asked: Queued: Cc1cc(CCCCCOc2c(C)cc(-c3cocn3)cc2C)on1 [Example 144]
Given back: 0.14

Asked: Next up: Cc1cc(CCCCCCCOc2ccc(C3=NCC(CO)O3)cc2)on1 (centres unmarked) [Example 23]
Given back: 1.55
